- ASSAY_REMARKS: Plasma clearance in rat
- Type: ADME, organism-based
- MEASUREMENT_CONDITIONS: read-out: Clp
ASSAY_READOUT: clearance (mL/min/kg)

> print(dat)
                                        mol  assay.readout  result.number
1  CCc1nc(Cc2ccccc2)sc1C1CCN(C[C@H]2CN([C@@H](C(=O)O)C(C)C)C[C@@H]2c2cccc(F)c2)CC1      clearance           1.15
2  O=C(O)[C@@H](CC1CC1)N1C[C@H](CN2CCC(c3[nH]c(Cc4ccccc4)nc3Cl)CC2)[C@@H](c2cccc(F)c2)C1      clearance           60.5

---

Reported bioavailability is given for each of the following compounds.
- ASSAY_REMARKS: Oral bioavailability in rat
- Assay type: ADME, organism-based
- MEASUREMENT_CONDITIONS: in vivo
ASSAY_READOUT: bioavailability (%)

> print(dat)
                                        mol  result.number
1  CCc1nc(Cc2ccccc2)sc1C1CCN(C[C@H]2CN([C@@H](C(=O)O)C(C)C)C[C@@H]2c2cccc(F)c2)CC1             19
2  O=C(O)[C@@H](CC1CC1)N1C[C@H](CN2CCC(c3[nH]c(Cc4ccccc4)nc3Cl)CC2)[C@@H](c2cccc(F)c2)C1            1.1

---

- ASSAY_REMARKS: Half life in rat
- Type: ADME, organism-based
- MEASUREMENT_CONDITIONS: in vivo
Reported half-life is given for each of the following molecules.
ASSAY_READOUT: half-life (min)

> print(dat)
                                        mol  assay.readout  result.number
1  O=C(O)[C@@H](CC1CC1)N1C[C@H](CN2CCC(c3[nH]c(Cc4ccccc4)nc3Cl)CC2)[C@@H](c2cccc(F)c2)C1      half-life           31.8
2  CCc1nc(Cc2ccccc2)sc1C1CCN(C[C@H]2CN([C@@H](C(=O)O)C(C)C)C[C@@H]2c2cccc(F)c2)CC1      half-life           50.4

---

- SYSTEM: UniProtKB P51681
- ASSAY_REMARKS: Inhibitory concentration against C-C chemokine receptor type 5 using [125I]-MIP-1 alpha as radioligand
ASSAY_READOUT: IC50 (nM)

> print(dat)
                                        mol            system  unit.of.measurement  result.number
1  O=C(O)[C@@H](C1CCCCC1)N1C[C@H](CN2CCC(c3cc(-c4ccccc4)no3)CC2)[C@@H](c2ccccc2)C1  UniProtKB P51681                   nM           18.1

---

Reported log10 of IC50 is given for each of the following compounds.
- SYSTEM: C-C chemokine receptor type 5 (Homo sapiens)
- Sequence (P51681 whole entry): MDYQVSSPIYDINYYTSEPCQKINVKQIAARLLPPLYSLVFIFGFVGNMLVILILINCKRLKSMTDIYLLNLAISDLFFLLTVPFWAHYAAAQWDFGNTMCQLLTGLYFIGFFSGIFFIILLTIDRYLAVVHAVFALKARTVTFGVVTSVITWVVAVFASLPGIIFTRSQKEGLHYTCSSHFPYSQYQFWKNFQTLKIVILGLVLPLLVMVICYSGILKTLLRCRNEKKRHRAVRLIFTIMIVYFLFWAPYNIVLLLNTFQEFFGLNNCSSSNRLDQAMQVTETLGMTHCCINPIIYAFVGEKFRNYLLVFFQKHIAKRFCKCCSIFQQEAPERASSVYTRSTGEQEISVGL
- ASSAY_REMARKS: Inhibition of human C-C chemokine receptor type 5 assayed using [125I]-MIP-1 alpha as radioligand
ASSAY_READOUT: log10 of IC50 (log10 of the value in nM)

> print(dat)
                                    compound                                    system  assay.readout  result.number
 1  O=C(O)[C@@H](CC1CC1)N1C[C@H](CN2CCC(c3c[nH]c(Cc4ccccc4)n3)CC2)[C@@H](c2ccccc2)C1  C-C chemokine receptor type 5 (Homo sapiens)  log10 of IC50          -0.14
 2  O=C(O)[C@@H](CC1CCC1)N1C[C@H](CN2CCC(c3[nH]c(Cc4ccccc4)nc3Cl)CC2)[C@@H](c2cccc(F)c2)C1  C-C chemokine receptor type 5 (Homo sapiens)  log10 of IC50          -0.22
 3  O=C(O)[C@@H](C1CCCCC1)N1C[C@H](CN2CCC(c3ncc(Cc4ccccc4)o3)CC2)[C@@H](c2ccccc2)C1  C-C chemokine receptor type 5 (Homo sapiens)  log10 of IC50           0.18
 4  O=C(O)[C@@H](C1CCCCC1)N1C[C@H](CN2CCC(c3nc(-c4ccccc4)c[nH]3)CC2)[C@@H](c2ccccc2)C1  C-C chemokine receptor type 5 (Homo sapiens)  log10 of IC50           1.36
 5  CCc1nc(Cc2ccccc2)sc1C1CCN(C[C@H]2CN([C@@H](C(=O)O)C(C)C)C[C@@H]2c2cccc(F)c2)CC1  C-C chemokine receptor type 5 (Homo sapiens)  log10 of IC50           0.00
 6  CC(C)[C@H](C(=O)O)N1C[C@H](CN2CCC(c3cnc(Cc4ccccc4)[nH]3)CC2)[C@@H](c2ccccc2)C1  C-C chemokine receptor type 5 (Homo sapiens)  log10 of IC50           0.85
 7  CCc1nc(Cc2ccccc2)oc1C1CCN(C[C@H]2CN([C@H](CC3CCC3)C(=O)O)C[C@@H]2c2cccc(F)c2)CC1  C-C chemokine receptor type 5 (Homo sapiens)  log10 of IC50          -0.05
 8  O=C(O)C(CC1CC1)N1CC(c2ccccc2)[C@@H](CN2CCC(c3cnc(Cc4ccccc4)s3)CC2)C1 (some centres undefined)  C-C chemokine receptor type 5 (Homo sapiens)  log10 of IC50          -0.64
 9  O=C(O)[C@@H](CC1CCC1)N1C[C@H](CN2CCC(c3c[nH]c(Cc4ccccc4)n3)CC2)[C@@H](c2ccccc2)C1  C-C chemokine receptor type 5 (Homo sapiens)  log10 of IC50          -0.42
10  O=C(O)[C@@H](C1CCCCC1)N1C[C@H](CN2CCC(c3csc(-c4ccccc4)n3)CC2)[C@@H](c2ccccc2)C1  C-C chemokine receptor type 5 (Homo sapiens)  log10 of IC50           0.04
11  CC(C)[C@H](C(=O)O)N1C[C@H](CN2CCC(c3cnc(Cc4ccccc4)s3)CC2)[C@@H](c2ccccc2)C1  C-C chemokine receptor type 5 (Homo sapiens)  log10 of IC50          -0.29
12  O=C(O)[C@@H](CC1CC1)N1C[C@H](CN2CCC(c3[nH]c(Cc4ccccc4)nc3Cl)CC2)[C@@H](c2cccc(F)c2)C1  C-C chemokine receptor type 5 (Homo sapiens)  log10 of IC50          -0.15
13  O=C(O)[C@@H](C1CCCCC1)N1C[C@H](CN2CCC(c3cnc(Cc4ccccc4)s3)CC2)[C@@H](c2ccccc2)C1  C-C chemokine receptor type 5 (Homo sapiens)  log10 of IC50          -0.54
14  O=C(O)[C@@H](CC1CCC1)N1C[C@H](CN2CCC(c3cnc(Cc4ccccc4)o3)CC2)[C@@H](c2ccccc2)C1  C-C chemokine receptor type 5 (Homo sapiens)  log10 of IC50          -0.47
15  CCc1nc(Cc2ccccc2)[nH]c1C1CCN(C[C@H]2CN([C@H](CC3CCC3)C(=O)O)C[C@@H]2c2cccc(F)c2)CC1  C-C chemokine receptor type 5 (Homo sapiens)  log10 of IC50          -0.24
16  CC(C)[C@H](C(=O)O)N1C[C@H](CN2CCC(c3cnc(Cc4ccccc4)o3)CC2)[C@@H](c2ccccc2)C1  C-C chemokine receptor type 5 (Homo sapiens)  log10 of IC50           0.58
17  O=C(O)[C@@H](C1CCCCC1)N1C[C@H](CN2CCC(c3cnc(-c4ccccc4)[nH]3)CC2)[C@@H](c2ccccc2)C1  C-C chemokine receptor type 5 (Homo sapiens)  log10 of IC50           0.79
18  O=C(O)[C@@H](C1CCCCC1)N1C[C@H](CN2CCC(c3cnc(Cc4ccccc4)[nH]3)CC2)[C@@H](c2ccccc2)C1  C-C chemokine receptor type 5 (Homo sapiens)  log10 of IC50          -0.17
19  O=C(O)[C@@H](C1CCCCC1)N1C[C@H](CN2CCC(c3nocc3-c3ccccc3)CC2)[C@@H](c2ccccc2)C1  C-C chemokine receptor type 5 (Homo sapiens)  log10 of IC50           1.43
20  O=C(O)[C@@H](C1CCCCC1)N1C[C@H](CN2CCC(c3ncc(Cc4ccccc4)s3)CC2)[C@@H](c2ccccc2)C1  C-C chemokine receptor type 5 (Homo sapiens)  log10 of IC50           0.30
21  O=C(O)C(CC1CCC1)N1CC(c2ccccc2)[C@@H](CN2CCC(c3cnc(Cc4ccccc4)s3)CC2)C1 (some centres undefined)  C-C chemokine receptor type 5 (Homo sapiens)  log10 of IC50          -0.64
22  O=C(O)[C@@H](CC1CC1)N1C[C@H](CN2CCC(c3cnc(Cc4ccccc4)o3)CC2)[C@@H](c2ccccc2)C1  C-C chemokine receptor type 5 (Homo sapiens)  log10 of IC50           0.20
23  O=C(O)[C@@H](C1CCCCC1)N1C[C@H](CN2CCC(c3csc(Cc4ccccc4)n3)CC2)[C@@H](c2ccccc2)C1  C-C chemokine receptor type 5 (Homo sapiens)  log10 of IC50           0.11
24  CCc1nc(Cc2ccccc2)sc1C1CCN(C[C@H]2CN([C@H](CC3CCC3)C(=O)O)C[C@@H]2c2cccc(F)c2)CC1  C-C chemokine receptor type 5 (Homo sapiens)  log10 of IC50          -0.12
